- System: Oryctolagus cuniculus
- TEST DETAILS: Toxicity in New Zealand white rabbit assessed as baseline heart rate at 1.79 umol/kg, administered as single bolus dose (reference value: 269 +/- 10 bpm)
- Assay type: organism-based
- CONDITION SET: in vivo
REPORTED METRIC: Activity (bpm)

[Na+].[SH-] [SODIUM HYDROSULFIDE]; 273
NC(=O)c1ccc(OCCCCn2cnc3c(N)ncnc32)cc1; 260
NC(=S)c1ccc(OC[C@H]2O[C@@H](n3cnc4c(N)ncnc43)[C@H](O)[C@@H]2O)cc1; 258
Nc1ncnc2c1ncn2CCCCO; 275
NC(=S)c1ccc(OCCCCn2cnc3c(N)ncnc32)cc1; 266
